Target: RSV postfusion F (postF), F ΔFP (Respiratory syncytial virus, UniProt P03420 26-513)
Assay: BLI, IgG on anti-human IgG sensor, 100 nM antigen
Item-by-item account of pKd
Would you please state pKd, meaning minus log10 of the concentration in mol/L, as a bare number?

Observe how each entry below is paired with its result.
[
  {
    "BINDER": "ADI-41600 (antibody, V domains shown, also called Ab 874; Antibody Number 874) VH: EVQLLESGGNMVQPGKSLRLSCAASGFTFSNYGMHWVRQAPGKGLEWVAVISKDGNNEHYADSVRARFTVSRDNSKNTLFLQMNSLRPEDTAVYYCAIGGLSGSYFGEYFQHWGRGTLVTVSS VL: DIQMTQSPSSMSASLGDRVTITCRASQGISTWLAWYQQKPGEAPKLLIYAAFGLQSGVPSRFSGSGSGTDFTLTINNLQPEDFATYYCQQAISFPFTFGGGTKVEIK",
    "MEASUREMENT KIND": "pKd",
    "DATA VALUE": 9.12
  },
  {
    "BINDER": "ADI-41808 (antibody, V domains shown, also called Ab 916; Antibody Number 916) VH: QVQLVQSGAELKKPGSSVRISCKVSGVTSDNYAITWVRQAPGQGLEWMGRVIPIFPVPQYAQKFQGRVTLSADKSTRTAYLELHSLRSEDTATYYCATHRPSDSWGQGTLVTVSS VL: DIRVTQSPSTLSASVGDRVTITCRASQNINSWLAWYQQKPGKAPKLLIFKASSLESGVPARFSGSGFGTEFTLTITSLQPDDFASYYCQQYDTYPYPFGQGTKVEIK",
    "MEASUREMENT KIND": "pKd",
    "DATA VALUE": 7.65
  }
]

Reported pKd for ADI-41564 (antibody, V domains shown, also called Ab 844; Antibody Number 844) VH: QVQLVQSGAEVKKPGSSVKVSCKAFGGTLRRYALSWVRQAPGQGLEWMGGIIPVFGTRRYAQKFQGRITITADGSTSTASMEVSSLRFEDTAIYYCATVYFDFVSGPPPTYYYYYMDVWGKGTTVTVSS VL: DIVMTQSPGTLSLSPGERATLSCRASQSVSSSYLAWYQQKPGQAPRLLIYGASSRATGIPDRFSGSGSGTDFTLTISRLEPEDFAVYYCQQYDSSLRVLTFGGGTKVDIK was 9.22

Looking up ADI-41562 (antibody, V domains shown, also called Ab 842; Antibody Number 842) VH: QVQLVQSGAEVKKPGASVRVSCKTSGYAFSKYGISWVRQAPGQGLEWIGWISAYNENTHFSHKFLGRVTMTTDTSTGIAYMDLRSLKSDDTAVYYCARDWYSLGSDWYFGPMFDYWGQGTLVTVSS VL: EIVLTQSPDTLSVSPGERATLSCRASQSVTTNLAWYQQKPGHAPRLLIYGASTRATGIPARFSGSGSGTEFTLTISSLQSEDFAIYYCQQYTNWPRTFGQGTKVEIK , I see its pKd listed as 9.17

Form field pKd, entry ADI-41678 (antibody, V domains shown) VH: EVQLVESGGGVVQPGGSLRLSCAASGFTFRTYGMHWVRQAPGKGLEWVAVISYDGSNKYYADSLMGRFTISRDNSKNTLYLQMNSLRAEDTAVYYCAKCFVPGSGGWYEYYFDYWGQGTLVTVSS VL: QSVLTQPPSASGSPGQSVTISCTGTSSDVGGYNYVSWYQQHPGKAPKLMIYEVSKRPSGVPDRFSGSKSGNTASLTVSGLQAEDEADYYCSSYAGINNSVLFGGGTKLTVL : 8.93
